Origin of measurements: patent US20260297085A1

test_system: JAK2 kinase activity on STAT5 in TF1 cells (Homo sapiens, UniProt O60674)
Sequence (O60674 whole entry): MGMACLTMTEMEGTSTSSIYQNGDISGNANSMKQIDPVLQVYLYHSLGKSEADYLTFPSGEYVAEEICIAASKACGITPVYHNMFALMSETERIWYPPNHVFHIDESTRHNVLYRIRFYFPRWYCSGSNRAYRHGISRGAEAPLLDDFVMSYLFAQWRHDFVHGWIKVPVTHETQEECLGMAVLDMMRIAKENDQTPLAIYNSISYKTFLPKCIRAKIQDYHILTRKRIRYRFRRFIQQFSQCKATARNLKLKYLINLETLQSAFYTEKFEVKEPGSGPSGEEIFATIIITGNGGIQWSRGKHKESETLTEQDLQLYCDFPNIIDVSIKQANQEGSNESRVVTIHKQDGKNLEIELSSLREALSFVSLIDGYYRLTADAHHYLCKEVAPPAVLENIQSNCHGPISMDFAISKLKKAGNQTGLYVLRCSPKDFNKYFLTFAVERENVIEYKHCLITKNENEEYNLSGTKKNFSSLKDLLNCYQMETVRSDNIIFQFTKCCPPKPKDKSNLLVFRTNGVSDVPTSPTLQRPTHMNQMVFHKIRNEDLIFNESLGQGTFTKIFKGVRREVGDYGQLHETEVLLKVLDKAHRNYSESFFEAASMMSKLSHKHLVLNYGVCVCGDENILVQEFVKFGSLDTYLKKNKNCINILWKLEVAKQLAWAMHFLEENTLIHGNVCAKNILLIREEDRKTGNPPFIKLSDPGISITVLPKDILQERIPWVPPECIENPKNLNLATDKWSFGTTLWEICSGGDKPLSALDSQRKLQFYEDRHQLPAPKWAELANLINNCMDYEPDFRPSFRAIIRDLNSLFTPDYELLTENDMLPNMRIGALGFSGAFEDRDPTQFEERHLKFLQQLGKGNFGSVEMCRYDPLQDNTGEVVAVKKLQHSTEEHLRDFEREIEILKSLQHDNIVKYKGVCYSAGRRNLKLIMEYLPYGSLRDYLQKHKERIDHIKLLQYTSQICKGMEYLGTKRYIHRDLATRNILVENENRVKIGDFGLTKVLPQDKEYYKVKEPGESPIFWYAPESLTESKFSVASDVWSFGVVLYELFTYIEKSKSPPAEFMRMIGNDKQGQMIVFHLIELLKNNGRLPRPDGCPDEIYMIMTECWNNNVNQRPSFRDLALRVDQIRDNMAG
procedure_text: pSTAT5 cell assay (MSD; TF1 cells, 30 ng/mL IL-3 stimulation)
condition_set: 30 ng/mL IL-3, 15 minutes
Counter-ions that a name gives are not always drawn.
reported_metric: IC50

- molecule: "C[C@@H]1CN(c2nc(-c3cnn(CC4COC4)c3)cn3ncc(F)c23)C(=O)[C@]1(C#N)C1CC1"
  reported_metric: "IC50"
  measured: "1 to 5 µM"
- molecule: "C[C@@H]1CN(c2nc(-c3cncc(O)c3)cn3nccc23)C(=O)[C@]1(C#N)C1CC1 [Example 258, trifluoroacetate]"
  reported_metric: "IC50"
  measured: "> 10 µM"
- molecule: "C[C@@H]1CN(c2nc(-c3cccnc3)cn3nccc23)C(=O)[C@]1(C#N)C1CC1"
  reported_metric: "IC50"
  measured: "1 to 5 µM"
- molecule: "C[C@@H]1CN(c2ccnn3cc(-c4ccc5ncnn5c4)cc23)C(=O)[C@]1(C#N)C1CC1"
  reported_metric: "IC50"
  measured: "> 10 µM"
- molecule: "C[C@@H]1CN(c2ccnn3cc(-c4cnn(C5CCN(C)CC5)c4)cc23)C(=O)[C@]1(C#N)C1CC1"
  reported_metric: "IC50"
  measured: "0.1 to 1 µM"
- molecule: "C[C@@H]1CN(c2nc(-c3cnn(-c4ccccn4)c3)cn3nccc23)C(=O)[C@]1(C#N)C1CC1"
  reported_metric: "IC50"
  measured: "1 to 5 µM"

Shifting focus to the molecule that follows.
Can you look up the measured IC50 of `CC(C)n1cc(-c2cn3ncc(F)c3c(N3C[C@@H](C)[C@@](C#N)(C4CC4)C3=O)n2)cn1` for me?
1 to 5 µM

----------
Documented pIC50 across a set of compounds
test_system: Tyk2 kinase activity on STAT4 in NK92 cells (Homo sapiens)
procedure_text: pSTAT4 cell assay (MSD; NK92 cells, 30 ng/mL IL2 stimulation)
condition_set: 30 ng/mL IL2, 15 minutes
Method: The inhibitory potency of compounds of the disclosure against the Tyk2 kinase activity on STAT4 was evaluated using an MSD-platform plate-based assay format. NK92 cells natively expressing STAT4 and Tyk2 were serum-starved to reduce background phosphorylation levels, then cells were treated compounds for 1 hr with a 10-point four-fold dilution series starting at 10 μM. […] Cells were lysed and pSTAT5 levels were quantitated using an MSD plate-based assay with anti-STAT4 antibodies. […]
pIC50: −log10 of the molar value. Counter-ions that a name gives are not always drawn.

These solved cases illustrate the format of a correct answer.
- compound: "C[C@H]1CN(c2ccnn3cc(-c4cnn(C)c4)cc23)C(=O)[C@]1(C#N)C1CC1 [Example 22]"
  pIC50: "< 7.00"
- compound: "C[C@@H]1CN(c2ccnn3cc(-c4cnc5[nH]ncc5c4)cc23)C(=O)[C@]1(C#N)C1CC1 [Example 75]"
  pIC50: "7.00 to 7.30"
- compound: "C[C@@H]1CN(c2ccnn3cc(-c4cnn(C5(CC#N)CC5)c4)cc23)C(=O)[C@]1(C#N)C1CC1 [Example 323]"
  pIC50: "7.00 to 7.30"
- compound: "C[C@@H]1CN(c2ccnn3cc(-c4ccc(C#N)nc4)cc23)C(=O)[C@]1(C#N)C1CC1 [Example 86, trifluoroacetate]"
  pIC50: "< 7.00"

Shifting focus to the compound that follows.
Can you look up the measured pIC50 of C[C@@H]1CN(c2nn(-c3cnn(C(F)F)c3)c3cnccc23)C(=O)[C@]1(C#N)C1CC1 [Example 276] for me?
< 7.00

----------
test_system: human TYK2 kinase domain (JH1) (Homo sapiens, UniProt P29597)
Construct: recombinantly generated catalytic kinase (also known as JH1) domain of human JAK1, JAK2, JAK3 and TYK2
procedure_text: JH1 biochemical assay for TYK2 (ADP-Glo kinase assay, recombinant JH1 catalytic domain, JAK3-974 peptide, 10 μM ATP)
condition_set: JH1 kinase domain, ADP-Glo
pIC50: −log10 of the molar value.
Documented pIC50 across a set of compounds

- molecule: "COc1cccc(-c2cn3nccc3c(N3C[C@@H](C)[C@@](C#N)(C4CC4)C3=O)n2)n1"
  test_system: "human TYK2 kinase domain (JH1) (Homo sapiens, UniProt P29597)"
  reported_metric: "pIC50"
  measured: "7.70 to 8.30"

Can you look up the measured pIC50 of `CC[C@H]1CN(c2ccnn3cc(-c4cnn(C)c4)cc23)C(=O)[C@]1(C#N)C1CC1` for me?
< 7.00

Repeat for the following compound: `C[C@H]1CN(c2ccnn3cc(-c4cnn(C)c4)cc23)C(=O)[C@@]1(C#N)C1CC1`
< 7.00

----------
test_system: JAK2 kinase activity on STAT5 in TF1 cells (Homo sapiens, UniProt O60674)
procedure_text: pSTAT5 cell assay (MSD; TF1 cells, 30 ng/mL IL-3 stimulation)
condition_set: 30 ng/mL IL-3, 15 minutes
pIC50: −log10 of the molar value. Where a name gives a salt, the structure may show the parent alone.
Documented pIC50 across a set of molecules

Can you look up the measured pIC50 of `C[C@@H]1CN(c2nc(-c3cnn(C4COC4)c3)cn3ncc(F)c23)C(=O)[C@]1(C#N)C1CC1` for me?
5.30 to 6.00

Repeat for the following molecule: CC(=O)Nc1cccc(-c2cc3c(N4C[C@@H](C)[C@@](C#N)(C5CC5)C4=O)ccnn3c2)n1 [Example 131, trifluoroacetate]
5.30 to 6.00

Repeat for the following molecule: `C[C@@H]1CN(c2nc(-c3cnn(C4CN(C)C4)c3)cc3ncsc23)C(=O)[C@]1(C#N)C1CC1`
6.00 to 7.00

----------
test_system: human TYK2 kinase domain (JH1) (Homo sapiens)
Construct: recombinantly generated catalytic kinase (also known as JH1) domain of human JAK1, JAK2, JAK3 and TYK2
Sequence (P29597 897-1176 limits assumed): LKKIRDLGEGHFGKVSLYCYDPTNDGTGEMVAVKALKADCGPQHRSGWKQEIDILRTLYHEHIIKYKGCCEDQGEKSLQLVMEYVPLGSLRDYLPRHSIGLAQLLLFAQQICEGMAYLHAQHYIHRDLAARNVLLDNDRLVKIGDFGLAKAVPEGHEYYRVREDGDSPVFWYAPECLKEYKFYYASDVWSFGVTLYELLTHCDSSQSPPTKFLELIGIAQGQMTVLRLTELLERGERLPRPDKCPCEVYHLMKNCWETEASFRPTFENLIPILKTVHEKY
procedure_text: JH1 biochemical assay for TYK2 (ADP-Glo kinase assay, recombinant JH1 catalytic domain, JAK3-974 peptide, 10 μM ATP)
condition_set: TYK2 JH1, ADP-Glo
Structures can show the parent of a compound that is named as a salt.
reported_metric: IC50

These solved cases illustrate the format of a correct answer.
- compound: "C[C@@H]1CN(c2nc(-c3ccc4nccn4c3)cn3nccc23)C(=O)[C@]1(C#N)C1CC1 [Example 263, trifluoroacetate]"
  test_system: "human TYK2 kinase domain (JH1) (Homo sapiens)"
  reported_metric: "IC50"
  measured: "< 5 nM"
- compound: "C[C@@H]1CN(c2ccnn3cc(-n4cc(C5CN(C)CCO5)cn4)cc23)C(=O)[C@]1(C#N)C1CC1 (stereo partly drawn)"
  test_system: "human TYK2 kinase domain (JH1) (Homo sapiens)"
  reported_metric: "IC50"
  measured: "20 to 50 nM"
- compound: "COc1cc(-c2cn3nccc3c(N3C[C@@H](C)[C@@](C#N)(C4CC4)C3=O)n2)ccn1 [Example 231, trifluoroacetate]"
  test_system: "human TYK2 kinase domain (JH1) (Homo sapiens)"
  reported_metric: "IC50"
  measured: "> 100 nM"
- compound: "CC(C)n1cc(-n2nc(N3C[C@@H](C)[C@@](C#N)(C4CC4)C3=O)c3ccncc32)cn1"
  test_system: "human TYK2 kinase domain (JH1) (Homo sapiens)"
  reported_metric: "IC50"
  measured: "< 5 nM"

Can you look up the measured IC50 of `COc1ccc(-c2cn3nccc3c(N3C[C@@H](C)[C@@](C#N)(C4CC4)C3=O)n2)cn1` for me?
20 to 50 nM

Repeat for the following compound: COc1ncc(-c2cn3nccc3c(N3C[C@@H](C)[C@@](C#N)(C4CC4)C3=O)n2)cc1C#N [Example 262, trifluoroacetate]
20 to 50 nM

Repeat for the following compound: `C[C@@H]1CN(c2ccnn3cc(-c4cnn([C@H]5C[C@H](C#N)C5)c4)cc23)C(=O)[C@]1(C#N)C1CC1`
< 5 nM

Repeat for the following compound: `C[C@@H]1CN(c2nc(-c3cnn(C4CC5(COC5)C4)c3)cn3ncc(F)c23)C(=O)[C@]1(C#N)C1CC1`
< 5 nM

----------
test_system: human JAK3 kinase domain (JH1) (Homo sapiens)
Construct: recombinantly generated catalytic kinase (also known as JH1) domain of human JAK1, JAK2, JAK3 and TYK2
Sequence (P52333 822-1111 limits assumed): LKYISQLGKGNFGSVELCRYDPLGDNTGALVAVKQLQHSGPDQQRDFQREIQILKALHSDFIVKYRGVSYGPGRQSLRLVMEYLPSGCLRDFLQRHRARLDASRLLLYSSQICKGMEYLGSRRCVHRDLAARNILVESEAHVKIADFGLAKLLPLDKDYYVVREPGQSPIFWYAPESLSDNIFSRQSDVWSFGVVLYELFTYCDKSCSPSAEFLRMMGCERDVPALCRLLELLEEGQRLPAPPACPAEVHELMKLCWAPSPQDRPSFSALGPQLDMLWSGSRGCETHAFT
procedure_text: JH1 biochemical assay for JAK3 (ADP-Glo kinase assay, recombinant JH1 catalytic domain, JAK3-974 peptide, 4 μM ATP)
condition_set: JAK3 JH1, ADP-Glo
pIC50: −log10 of the molar value. Structures can show the parent of a compound that is named as a salt.
reported_metric: pIC50

- compound: "C[C@@H]1CN(c2nc(-c3cncc(F)c3)cn3nccc23)C(=O)[C@]1(C#N)C1CC1 [Example 246, trifluoroacetate]"
  pIC50: "6.00 to 7.00"
- compound: "CCn1cc(-n2nc(N3C[C@@H](C)[C@@](C#N)(C4CC4)C3=O)c3ccncc32)cn1"
  pIC50: "6.00 to 7.00"

Can you look up the measured pIC50 of `C[C@@H]1CN(c2cc(-c3cnn(C)c3)cn3nccc23)C(=O)[C@]1(C#N)C1CC1` for me?
6.00 to 7.00

Repeat for the following compound: `C[C@@H]1CN(c2nc(-c3cnn([C@H]4C[C@H](C#N)C4)c3)cn3ncc(F)c23)C(=O)[C@]1(C#N)C1CC1`
> 7.00

Repeat for the following compound: C[C@@H]1CN(c2nc(-c3cccnc3F)cn3nccc23)C(=O)[C@]1(C#N)C1CC1 [Example 226, trifluoroacetate]
< 5.00

Repeat for the following compound: C[C@@H]1CN(c2nc(-c3ccnc(F)c3)cn3nccc23)C(=O)[C@]1(C#N)C1CC1 [Example 237, trifluoroacetate]
6.00 to 7.00

Repeat for the following compound: `C[C@@H]1CN(c2ccnn3cc(-c4cnn(C5(CC#N)CC5)c4)cc23)C(=O)[C@]1(C#N)C1CC1`
> 7.00

Repeat for the following compound: `C[C@@H]1CN(c2nn(-c3cnn(C(F)F)c3)c3cnccc23)C(=O)[C@]1(C#N)C1CC1`
6.00 to 7.00

Repeat for the following compound: `C[C@@H]1CN(c2nc(-c3cnn([C@H]4C[C@@H](C#N)C4)c3)cn3ncc(F)c23)C(=O)[C@]1(C#N)C1CC1`
> 7.00
